Target: CDK4/Cyclin D1 (Homo sapiens (Human))
Sequence (P11802 whole entry): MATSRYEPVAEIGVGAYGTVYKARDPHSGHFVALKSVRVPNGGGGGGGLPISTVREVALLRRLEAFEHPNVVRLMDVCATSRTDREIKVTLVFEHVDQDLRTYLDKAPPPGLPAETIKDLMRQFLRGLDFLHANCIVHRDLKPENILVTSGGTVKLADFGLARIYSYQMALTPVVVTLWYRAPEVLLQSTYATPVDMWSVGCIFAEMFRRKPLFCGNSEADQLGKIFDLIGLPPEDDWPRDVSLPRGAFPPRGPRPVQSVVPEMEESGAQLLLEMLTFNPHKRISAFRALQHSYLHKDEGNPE
Sequence (P24385 whole entry partner): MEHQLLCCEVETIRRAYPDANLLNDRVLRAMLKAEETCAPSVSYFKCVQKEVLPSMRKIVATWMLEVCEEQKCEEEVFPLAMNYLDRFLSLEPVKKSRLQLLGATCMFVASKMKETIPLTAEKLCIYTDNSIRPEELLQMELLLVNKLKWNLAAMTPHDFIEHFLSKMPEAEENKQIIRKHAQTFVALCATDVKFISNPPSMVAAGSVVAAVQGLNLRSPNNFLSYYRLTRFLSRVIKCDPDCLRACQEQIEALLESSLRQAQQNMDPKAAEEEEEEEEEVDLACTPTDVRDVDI
Experiment: CDK4/Cyclin D1 CHEF Assay (AQT0258 peptide)
Assay type: biochemical
Settings: 200 uM ATP, read-out: CDK4/ CyclinD1 AQT IC50
endpointLabel: IC50

Consider the worked cases shown below.
{"moleculeSmiles": "Cc1cc2cnc(NC3CCN(S(=O)(=O)C4CC4)CC3)nc2c(N2CC3(CCN(C)C3)C2)n1", "IC50": "< 200 nM"}
{"moleculeSmiles": "Cc1cc2cnc(NC3CCN(S(=O)(=O)C4CC4)CC3)nc2c(N2CC3(CCNC3)C2)n1", "IC50": "< 200 nM"}

Below: the item to evaluate.
Query `CS(=O)(=O)N1CCC(Nc2ncc3cc(C4CC4)nc(N4CC(F)(F)C5(CNC5)C4)c3n2)CC1` yields IC50 of < 200 nM

----------
Biological target: CDK4/Cyclin D1 (Homo sapiens (Human))
Experiment: CDK4/Cyclin D1 CHEF Assay (AQT0258 peptide)
Assay type: biochemical
Conditions: 200 uM ATP, read-out: CDK4/ CyclinD1 AQT IC50
endpointLabel: IC50

Please review the entries below; each comes with its answer.
{"compound": "Cc1cc2cnc(Nc3cnn(C4CN(CC#N)C4)c3)nc2c(N2CC3(CN(C)C3)C2)n1 [Compound 31]", "IC50": "> 2000 nM"}
{"compound": "Cc1cc2cnc(NC3CCN(S(C)(=O)=O)CC3)nc2c(N2CCC3(CCC3(F)F)C2)n1 (stereo not drawn) [Compound 52]", "IC50": "< 200 nM"}
{"compound": "Cc1cc2cnc(NC3CCN(S(=O)(=O)c4cnn(C)c4)CC3)nc2c(N2CC(F)(F)C3(CN(C)C3)C2)n1 [Compound 97]", "IC50": "< 200 nM"}
{"compound": "O=S(=O)(CC1CCC1)N1CCC(Nc2ncc3cc(C(F)F)nc(N4CC5(CCNC5)C4)c3n2)CC1 [Compound 55]", "IC50": "< 200 nM"}
{"compound": "Cc1cc2cnc(NC3CCN(S(=O)(=O)CCC4(C)CC4)CC3)nc2c(N2CC(F)(F)C3(CNC3)C2)n1 [Compound 67]", "IC50": "< 200 nM"}

Note to self: IC50 recorded for Cc1cc2cnc(NC3CCN(S(C)(=O)=O)CC3)nc2c(N2CC(F)(F)C3(CN(C)C3)C2)n1 [Compound 96] was < 200 nM

IC50 measured on Cc1cc2cnc(NC3CCN(S(=O)(=O)C4CC4)CC3)nc2c(N2CC(CS(C)(=O)=O)C2)n1 [Compound 74] = 200 to 500 nM

Item: Cc1cc2cnc(NC3CCN(S(C)(=O)=O)CC3)nc2c(N2CC3(CNCC3C(F)F)C2)n1 (stereo not drawn) [Compound 100] | IC50: < 200 nM

For reference, reported IC50 for Cc1cc2cnc(NC3CCN(S(C)(=O)=O)CC3)nc2c(N2CC(F)(F)C3(CNC3)C2)n1 [Compound 92] stands at < 200 nM

----------
Biological target: CDK2/Cyclin E1 (Homo sapiens (Human))
Experiment: CDK2/Cyclin E1 Full length ADP-Glo Kinase Assay
Settings: 20 uM ATP, read-out: CDK2/ CyclinE1 IC50
Listed molecules paired with reported IC50

As a guide, the following entries are already answered.
{"molecule": "CS(=O)(=O)N1CCC(Nc2ncc3ccnc(N4CCC(C#N)(C5CC5)C4)c3n2)CC1 (centres unmarked)", "systemUnderTest": "CDK2/Cyclin E1 (Homo sapiens (Human))", "IC50": "< 200 nM"}
{"molecule": "CCN1CC2(C1)CN(c1ccc(Nc3ncc4ccnc(N5CCC6(C5)CC(F)(F)C6)c4n3)nc1)C2", "systemUnderTest": "CDK2/Cyclin E1 (Homo sapiens (Human))", "IC50": "500 to 2000 nM"}
{"molecule": "Cc1cc2cnc(NC3CCN(S(C)(=O)=O)CC3)nc2c(N2CCC3(CC3)C2)n1", "systemUnderTest": "CDK2/Cyclin E1 (Homo sapiens (Human))", "IC50": "< 200 nM"}

The reported value for `Cc1cc2cnc(Nc3cnn(C4CN(CC#N)C4)c3)nc2c(N2CC3(CN(C)C3)C2)n1` in terms of IC50 is < 200 nM

IC50 recorded for this molecule, `Cc1cc2cnc(NC3CCN(S(C)(=O)=O)CC3)nc2c(N2CCC3(C2)CC(F)(F)C3)n1` , is < 200 nM

----------
Target: CDK6/Cyclin D3 (Homo sapiens (Human), UniProt Q00534)
Sequence (Q00534 whole entry): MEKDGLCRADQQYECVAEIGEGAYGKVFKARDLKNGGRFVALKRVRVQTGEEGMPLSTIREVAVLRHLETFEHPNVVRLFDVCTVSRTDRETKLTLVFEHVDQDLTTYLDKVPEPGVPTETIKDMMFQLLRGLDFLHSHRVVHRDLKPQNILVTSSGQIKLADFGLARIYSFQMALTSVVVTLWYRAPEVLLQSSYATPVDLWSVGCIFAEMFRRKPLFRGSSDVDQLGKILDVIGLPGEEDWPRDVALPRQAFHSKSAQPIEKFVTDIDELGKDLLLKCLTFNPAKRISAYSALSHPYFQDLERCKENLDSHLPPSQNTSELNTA
Sequence (P30281 whole entry partner): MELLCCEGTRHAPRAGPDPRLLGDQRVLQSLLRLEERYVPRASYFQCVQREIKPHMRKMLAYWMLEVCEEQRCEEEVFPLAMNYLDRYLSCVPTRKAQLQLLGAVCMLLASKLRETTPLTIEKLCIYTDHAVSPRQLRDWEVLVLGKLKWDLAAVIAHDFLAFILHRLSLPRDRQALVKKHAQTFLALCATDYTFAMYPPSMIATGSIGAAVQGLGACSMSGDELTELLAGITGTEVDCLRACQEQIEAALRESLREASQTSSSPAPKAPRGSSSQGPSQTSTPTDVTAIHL
Assay: CDK6/Cyclin D3 ADP-Glo Kinase Assay
Conditions: 100 uM ATP, read-out: CDK6/ CyclinD3 IC50
pIC50: −log10 of the molar value.
endpointLabel: pIC50

Reported pIC50 for [2H]C([2H])([2H])N1CC2(CN(c3nc(C)cc4cnc(NC5CCN(S(=O)(=O)C6CC6)CC5)nc34)CC2(F)F)C1 [Compound 13] was > 6.70

Entry Cc1cc2cnc(NC3CCN(S(=O)(=O)c4ccn(C)n4)CC3)nc2c(N2CC(F)(F)C3(CNC3)C2)n1 [Compound 94] — recorded pIC50 = > 6.70

----------
IC50 values for the compounds below.
Target: CDK6/Cyclin D3 (Homo sapiens (Human), UniProt Q00534)
Experiment: CDK6/Cyclin D3 ADP-Glo Kinase Assay
Settings: 100 uM ATP, read-out: CDK6/ CyclinD3 IC50

Example entries begin here.
{"compound": "CCN1CC2(C1)CN(c1ccc(Nc3ncc4ccnc(N5CCC6(CCOCC6)C5)c4n3)nc1)C2", "recordedValue": "< 200 nM"}
{"compound": "Cc1cc2cnc(Nc3ccc(N4CC5(CN(C)C5)C4)cc3)nc2c(N2CCC3(CCOCC3)C2)n1", "recordedValue": "< 200 nM"}
{"compound": "Cc1cc2cnc(NC3CCN(S(C)(=O)=O)CC3)nc2c(N2CC3(CCC(=O)NC3)C2)n1", "recordedValue": "200 to 500 nM"}
{"compound": "CS(=O)(=O)N1CCC(Nc2ncc3ccnc(N4CCC(C#N)(C5CC5)C4)c3n2)CC1 (stereo not drawn)", "recordedValue": "< 200 nM"}
{"compound": "Cc1cc2cnc(NC3CCN(S(=O)(=O)C4CC4)CC3)nc2c(N2CC(C#N)(CCF)C2)n1", "recordedValue": "500 to 2000 nM"}
{"compound": "Cc1cc2cnc(NC3CCN(S(=O)(=O)C4CC4)CC3)nc2c(N2CC3(CCN(C)C3)C2)n1", "recordedValue": "200 to 500 nM"}
{"compound": "Cc1cc2cnc(NC3CCN(S(C)(=O)=O)CC3)nc2c(C2CC(C)(CO)C2)n1 (stereo not drawn)", "recordedValue": "< 200 nM"}
{"compound": "CN1CCC(n2cc(Nc3ncc4ccnc(N5CCC6(C5)CC6(F)F)c4n3)cn2)CC1 (stereo not drawn)", "recordedValue": "< 200 nM"}

What the record says about `Cc1cc2cnc(NC3CCN(S(C)(=O)=O)CC3)nc2c(N2CC3(CNCC3(F)F)C2)n1` : IC50 is < 200 nM

----------
Target: CDK2/Cyclin E1 (Homo sapiens (Human), UniProt P24941)
Experiment: CDK2/Cyclin E1 Full length ADP-Glo Kinase Assay
Details: 20 uM ATP, read-out: CDK2/ CyclinE1 IC50
IC50 values, listed per item

Answered cases to consult:
{"compound": "Cc1cc2cnc(NC3CCN(S(C)(=O)=O)CC3)nc2c(N2CC3(CCC(=O)N3)C2)n1", "IC50": "< 200 nM"}
{"compound": "Cc1cc2cnc(Nc3ccc4c(c3)CN(C3CN(S(C)(=O)=O)C3)C4)nc2c(N2CC3(CN(C)C3)C2)n1", "IC50": "200 to 500 nM"}
{"compound": "CN1C[C@@H]2[C@H](C1)[C@H]2Nc1ncc2ccnc(N3CCC4(CCN(S(C)(=O)=O)C4)C3)c2n1 (stereo partly shown)", "IC50": "500 to 2000 nM"}
{"compound": "CN1Cc2ccc(Nc3ncc4ccnc(N5CCC6(CCN(S(C)(=O)=O)C6)C5)c4n3)cc2C1 (stereo not shown)", "IC50": "< 200 nM"}
{"compound": "Cc1cc2cnc(Nc3cnn(CC4(N(C)C)CC4)c3)nc2c(N2CCC(C#N)(C3CC3)C2)n1 (stereo not shown)", "IC50": "< 200 nM"}

Kindly note the recorded IC50 for `CS(=O)(=O)N1CCC(Nc2ncc3ccnc(N4CC5(CCCC5)c5c(F)cccc54)c3n2)CC1` , which is < 200 nM

Recorded IC50 (compound `CN1Cc2ccc(Nc3ncc4ccnc(N5CC6(C5)CS(=O)(=O)C6)c4n3)cc2C1` ): < 200 nM

Form: compound = `Cc1cc2cnc(Nc3ccc4c(c3)CN(C3CC3)C4)nc2c(N2CC3(CCNC3)C2)n1` ; IC50 = < 200 nM

Cc1cc2cnc(NC3CCN(S(C)(=O)=O)CC3)nc2c(N2CC3(CNCC3F)C2)n1 (stereo not shown) yielded IC50 of < 200 nM

The recorded IC50 for entry Cc1cc2cnc(NC3CCN(S(C)(=O)=O)CC3)nc2c(C2CC3(C2)CN(C)CCO3)n1 (stereo not shown) equals < 200 nM

Value of IC50 reported for the compound `Cc1cc2cnc(NC3CCN(S(C)(=O)=O)CC3)nc2c(N2CC3(CCC(=O)NC3)C2)n1` is < 200 nM

Lab note: `Cc1cc2cnc(Nc3cc4c(cc3F)CN(S(C)(=O)=O)C4)nc2c(N2CC3(CNC3)C2)n1` gave IC50 of 200 to 500 nM
